- Target: APE-1 (Homo sapiens, UniProt P27695)
- Sequence (P27695 whole entry): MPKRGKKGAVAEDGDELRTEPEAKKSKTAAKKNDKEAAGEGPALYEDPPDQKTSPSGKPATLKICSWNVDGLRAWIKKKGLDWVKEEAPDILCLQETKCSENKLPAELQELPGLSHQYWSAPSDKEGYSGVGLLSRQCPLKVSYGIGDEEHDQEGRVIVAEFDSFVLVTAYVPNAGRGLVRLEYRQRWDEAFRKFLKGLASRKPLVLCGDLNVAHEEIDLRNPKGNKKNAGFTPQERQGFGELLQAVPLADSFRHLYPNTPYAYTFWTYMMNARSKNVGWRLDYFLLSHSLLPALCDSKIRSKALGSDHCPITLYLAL
- Experimental Protocol: Gel-based assay for APE-1 inhibitors
- Condition Description: in gel excision assay; 20 nM APE-1, 100 nM duplex DNA with THF abasic site
Quantity: pIC50
// scale note: pIC50 = -log10(conc_M); give the bare number

Known results for compounds:
- Smiles Representation: "CCn1c2ccccc2c2cc(/C=N/Nc3cc(C)nc4cc5c(cc34)OCO5)ccc21"
  pIC50: 5.39
- Smiles Representation: "Cc1cc(N/N=C/c2c(C)n(C)n(-c3ccccc3)c2=O)c2cc3c(cc2n1)OCO3"
  pIC50: 4.46
- Smiles Representation: "C/C(=N\\Nc1cc(C)nc2cc3c(cc12)OCO3)c1cn(C)n(-c2ccccc2)c1=O"
  pIC50: 5.36
- Smiles Representation: "COc1cccc(/C=N/Nc2cc(C)nc3cc4c(cc23)OCO4)c1"
  pIC50: 5.00

// field: pIC50; key: `Cc1cc(N/N=C/c2ccc3c(c2)OCO3)c2cc3c(cc2n1)OCO3` ; value = 5.54
